# pEC50 per record follows
target: CBP Bromodomain (Homo sapiens)
Sequence (Q92793 1085-1192 limits assumed): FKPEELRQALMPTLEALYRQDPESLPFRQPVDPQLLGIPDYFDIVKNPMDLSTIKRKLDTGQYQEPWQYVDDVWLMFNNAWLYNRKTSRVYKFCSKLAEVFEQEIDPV
assayDetails: Assay 3: CBP bromodomain binding assay (TR-FRET)
pEC50: −log10 of the molar value.

>>> testvalue("CC(=O)N1C[C@H](c2nc(Nc3cccc4nn(C)cc34)cc(-c3cccnc3)n2)CC[C@@H]1C")
"> 6.70"
>>> testvalue("CC(=O)N1C[C@H](c2nc(Nc3cc(F)cc(-c4cnn(C)c4)c3)cc(-c3cccnc3)n2)CC[C@@H]1C")
"> 6.70"
>>> testvalue("CC(=O)N1C[C@H](c2nc(Nc3ccnc(-c4cn(C)nn4)c3)cc(-c3cnccn3)n2)CC[C@@H]1C")
"> 6.70"

Would you kindly look at the next entry?
I am curious: what pEC50 value has been reported for CC(=O)N1C[C@H](c2nc(Nc3ccc4nccn4c3)cc(-c3cccnc3)n2)CC[C@@H]1C ? 6.00 to 6.70
